Molecular target: Dyrk1a (Homo sapiens)
Construct: purchased Upstate
Experiment: LabChip (Caliper) kinase assay, Dyrk1a
Assay type: biochemical
Details: compound at 10 nM, read-out: remaining kinase activity (in %) / percentage of inhibition
inhibition at 0.01 µM values for the compounds below.
Reply with just the number (in %).

Please review the entries below; each comes with its answer.
compound | inhibition at 0.01 µM [%]
C[C@H]1O[C@@H](n2c3ccccc3c3c4c(c5c6ccccc6[nH]c5c32)C(=O)NC4=O)C[C@@H](O)[C@@H]1O | 62
C[C@@H]1O[C@@H](n2c3ccccc3c3c4c(c5c6ccccc6[nH]c5c32)CNC4=O)C[C@H](O)[C@H]1O [formula (XIII), N^13-1′-β-L-olivosyl-k252c] | 42
C[C@H]1O[C@@H](n2c3ccccc3c3c4c(c5c6ccccc6[nH]c5c32)CNC4=O)C[C@@H](O)[C@@H]1O [formula (XV), N^13-1′-β-D-olivosyl-k252c] | 14

So, C[C@@H]1O[C@@H](n2c3ccccc3c3c4c(c5c6ccccc6[nH]c5c32)CNC4=O)[C@H](O)[C@H](O)[C@H]1O [formula (XII), N^13-1′-β-L-rhamnosyl-k252c] ? Its inhibition at 0.01 µM was 101

So, C[C@@H]1O[C@@H](n2c3ccccc3c3c4c(c5c6ccccc6[nH]c5c32)C(=O)NC4=O)[C@H](O)[C@H](O)[C@H]1O ? Its inhibition at 0.01 µM was 87

So, C[C@@H]1O[C@@H](n2c3ccccc3c3c4c(c5c6ccccc6[nH]c5c32)C(=O)NC4=O)C[C@H](O)[C@H]1O ? Its inhibition at 0.01 µM was 32

So, C[C@@H]1O[C@@H](n2c3ccccc3c3c4c(c5c6ccccc6[nH]c5c32)CNC4=O)C[C@@H](O)[C@H]1O [formula (XIV), N^13-1′-β-L-digitoxosyl-k252c] ? Its inhibition at 0.01 µM was 15

So, C[C@@H]1O[C@@H](n2c3ccccc3c3c4c(c5c6ccccc6[nH]c5c32)C(=O)NC4=O)C[C@@H](O)[C@H]1O ? Its inhibition at 0.01 µM was 49
